assay: yeast display, Sf9 membrane polyspecificity reagent, FACS + sequencing; frameworks hold sequencing errors
property-name: polyreactivity (PSR sort gate)

{"sequence": "QVQLVESGGGLVQAGGRLRLSCAASVRIFRVYAMGWYRQEPGKERELVAAISWSGGRTYYADSVKGRFTISRDNAKNTVYLQMNSLKPEHTAVYYCAAVSGYALGYDYWGQGTQVTVSS", "polyreactivity (PSR sort gate)": "high polyreactivity"}
{"sequence": "QVQLVESGGGLVQAGGSLRLSCAASGFTFTANGMGWYIQAPGKERELLAAINWSGSRTYYADSVKGRFTISRDNAKNTVYLQMNSLKPEDTAVYYCNTATSKSSYRHYDYWGQGTQVTVSS", "polyreactivity (PSR sort gate)": "high polyreactivity"}
{"sequence": "QVQLVESGGGLVQAGGSLRLSCAASGFTFDPYAMGWYRQAPGKERELVAAIDYSGGTTYYADSVKGRFTISRDNAKNTVYLQMNSLKPEDTAVYYCAAEYTYYHWWGYDYWGQGTQVTVSS", "polyreactivity (PSR sort gate)": "high polyreactivity"}
{"sequence": "QVQLVESGGGLVQAGGSLRLSCAASGTLSSYAMGWYRQAPGKERELVAAISLSGGSTYADSVKGRFTISRDNAKKSVYLQMNSLKPEDTAVYYCAKDWDVEITWSFSIYNYWGQGTHVTVSS", "polyreactivity (PSR sort gate)": "low polyreactivity"}

Here is another sequence to look at.
For record QVQLQESGGGLVQAGGSLRLGCAASGNISDPGYMGWYRQAPGKEREFVAAIAAGSNTNYADSVKGRFTISRDNAKNTVYLLMNSLKPEDTAVFYCAVDSYARVQYEYWGQGTQVTVYS the listed polyreactivity (PSR sort gate) is low polyreactivity

These data points were gathered from the nanobody polyreactivity screen of Harvey et al. (2022).
